settings: human;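 further: human cholestatic liver injury, shown by histopathology or by peak ALT or AST elevation over alkaline phosphatase ratio below 2, value counts indexed literature reports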
measurement_type: Hepatotoxicity (choleostasis)

compound	Hepatotoxicity (choleostasis)
CC(=O)CCC1C(=O)N(c2ccccc2)N(c2ccccc2)C1=O	3

# input Give a short answer stating reported Hepatotoxicity (choleostasis) for CN(c1nccc(=O)[nH]1)C1CCN(c2nc3ccccc3n2Cc2ccc(F)cc2)CC1 .
# output 0

# input Give a short answer stating reported Hepatotoxicity (choleostasis) for CCN1C(=O)NC(c2ccccc2)C1=O (stereo not drawn) .
# output 0

# input Give a short answer stating reported Hepatotoxicity (choleostasis) for CN(Cc1cnc2nc(N)nc(N)c2n1)c1c(Cl)cc(C(=O)N[C@@H](CCC(=O)O)C(=O)O)cc1Cl .
# output 0

# input Give a short answer stating reported Hepatotoxicity (choleostasis) for Cc1cn([C@H]2C=C[C@@H](CO)O2)c(=O)[nH]c1=O .
# output 5

# input Give a short answer stating reported Hepatotoxicity (choleostasis) for [H]/N=C(/N)N/C(=N/[H])NCCc1ccccc1 .
# output 0

# input Give a short answer stating reported Hepatotoxicity (choleostasis) for COc1c2occc2cc2ccc(=O)oc12 .
# output 0

# input Give a short answer stating reported Hepatotoxicity (choleostasis) for CN[C@@H]1[C@H](O)[C@H](NC)[C@H]2O[C@@]3(O)C(=O)C[C@@H](C)O[C@H]3O[C@@H]2[C@H]1O .
# output 1
